# Experimental protocol: protein stability index of a GFP-peptide fusion (yeast GPS) (PSI 1-4); higher = more stable; sorted into four equal gates, so the index is relative within each strain
# Run conditions: pdr5∆
For each entry below, report its protein stability index value.

{"Sequence entry": "DSALRYSILGDRFKYRS [POP4]", "protein stability index": 3.04}
{"Sequence entry": "GSKSDGSAATSGFEFSK [RPN1]", "protein stability index": 3.09}
{"Sequence entry": "KPLFDFGKTGDQKETKK [YOR098C/NUP1]", "protein stability index": 3.6}
{"Sequence entry": "TLKLRARQRGKLKKSEE [SRP68]", "protein stability index": 3.27}
{"Sequence entry": "IDDVQTIKVVKRSMDAE [RPP1]", "protein stability index": 2.89}

Answer for every listed entry: what is its protein stability index? The entries follow.
1. AIPLLKVLRKFRVQSQS [NUT1]
2. TRISSQFEKSRKVSGPR [RET1]
3. TLQDIGFYQIKKIVDSK [YMR129W/POM152]
4. SQKTKTIQSDLNLSLHK [SMC2]
5. VAATITSSQKEPFFLVT [SRB8]
6. HDEKLSDELHNQSTIYE [LIN1]
7. KMLMNLHKEQWQSGLKM [RPN11]

result:
[1.93, 2.92, 2.68, 2.3, 2.17, 2.74, 2.05]

Answer for every listed entry: what is its protein stability index? The entries follow.
1. CAACHSLDRVAWRTLVG [CYT1]
2. EYALEAVKRGTCAVGVK [PRE6]
3. IISTAIADSTHVKRITK [ECM29]

result:
[1.32, 2.53, 2.95]

###

# Experimental protocol: protein stability index of a GFP-peptide fusion (yeast GPS) (PSI 1-4); higher = more stable; sorted into four equal gates, so the index is relative within each strain
# Run conditions: ubr1∆
Property measured: protein stability index
Give bare numbers.

{"Sequence entry": "FDDNDSGNNYNDINISS [MED2]", "Quantitative result": 3.15}
{"Sequence entry": "DPFKTSSFNKRSKFLST [IRR1]", "Quantitative result": 2.12}
{"Sequence entry": "PTGPKTAIDKNGNITYS [FAS2]", "Quantitative result": 2.91}

Answer for every listed entry: what is its protein stability index? The entries follow.
1. YAKDILQKEFLPHITQL [RPB2]
2. SYNLEYIESKFCPGEIV [YMR129W/POM152]
3. NQASTSKRVYKILSPTM [CDC53]
4. ALVAYTPTDVIGVVSLT [RRP6]

result:
[1.38, 3.21, 2.59, 1.93]

###

# Experimental protocol: protein stability index of a GFP-peptide fusion (yeast GPS) (PSI 1-4); higher = more stable; sorted into four equal gates, so the index is relative within each strain
# Run conditions: ubr1∆
Property measured: protein stability index
Give bare numbers.

Some solved cases for reference:
{"Sequence entry": "QMIELNRQICLVQKTVQ [GRR1]", "protein stability index": 2.09}
{"Sequence entry": "TLLARAVAHHTDCKFIR [RPT6]", "protein stability index": 2.23}
{"Sequence entry": "DLEEVKRFQVLYPCYFD [SEC65]", "protein stability index": 2.34}

Answer for every listed entry: what is its protein stability index? The entries follow.
1. IIEKITDQILQLLKEDS [RRP45]
2. ISNINIPISSETTIDDL [SMC1]
3. DHFLSMCQNPMQKPVPF [FAS1]

result:
1. 2.37
2. 1.85
3. 2.42

Answer for every listed entry: what is its protein stability index? The entries follow.
1. MNFISKEEFIMMVNISV [PCI8]
2. SSIDRGFGRCETRRKTT [RET1]

result:
1: 1.37; 2: 2.52

Origin of the recorded values: the supplement of paper PMC9732359
